Every entry's value here was drawn from ChEMBL document CHEMBL3826969.

Give pIC50 for every item shown.
system: ASPC1; test: Cytotoxicity against human AsPC1 cells assessed as cell growth inhibition after 48 hrs by MTT assay; format: functional, cell-based; conditions: ASPC1, 48 h
One number for each entry, as −log10 of the molar value.

Previously resolved entries follow.
Molecule	pIC50
Cc1c(OCC(=O)N2CCN(C)CC2)ccc2c(=O)c3ccc(OCC(=O)N4CCN(C)CC4)cc3oc12	4.01
O=c1[nH]cc(F)c(=O)[nH]1	4.01
Cc1c(OCC(=O)N2CC(C)OC(C)C2)ccc2c(=O)c3ccc(OCC(=O)N4CC(C)OC(C)C4)cc3oc12 (stereo not drawn)	3.94
Cc1c(OCC(=O)N2C(C)CCCC2C)ccc2c(=O)c3ccc(OCC(=O)N4C(C)CCCC4C)cc3oc12 (stereo not drawn)	5.15
Cc1c(OCC(=O)NC2CCCCC2C)ccc2c(=O)c3ccc(OCC(=O)NC4CCCCC4C)cc3oc12 (stereo not drawn)	4.81

Working through the 3 molecules below one at a time, give pIC50 for each.
1. CC1CCCC(C)N1C(=O)COc1ccc2c(=O)c3ccc(OCC(=O)N4C(C)CCCC4C)cc3oc2c1 (stereo not drawn)
2. Cc1c(OCC(=O)N2CC(C)CC(C)C2)ccc2c(=O)c3ccc(OCC(=O)N4CC(C)CC(C)C4)cc3oc12 (stereo not drawn)
3. CCOC(=O)N1CCN(C(=O)COc2ccc3c(=O)c4ccc(OCC(=O)N5CCN(C(=O)OCC)CC5)c(C)c4oc3c2)CC1

(A)
1. 4.86
2. 5.32
3. 4.47

# lookup: Cc1c(OCC(=O)NCC2CCCO2)ccc2c(=O)c3ccc(OCC(=O)NCC4CCCO4)cc3oc12 (stereo not drawn) on ASPC1, pIC50 = 4.10
